B1: PDS5B (parent)
chain: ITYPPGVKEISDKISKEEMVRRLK

Variants of: B1
Assay: protein stability index of a GFP-peptide fusion (GPS, HEK-293T) (PSI 1-6); higher = more stable;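 also: lentivirally expressed fusions sorted by FACS into six bins by GFP to DsRed ratio, PSI derived from sequencing read proportions per bin multiplied by bin number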
Conditions: c terminus: a fixed tail appended
Decide using protein stability index: a value greater than or equal to 4 is 1, a smaller one is 0.

Consider the following illustrative entries.
K13Q = 1
Y3F = 0
E18V = 0
R21K = 0
R22C = 0

Request: Reported protein stability index at or above 4? "K16T"
Result: 0

Request: Reported protein stability index at or above 4? "Y3L"
Result: 0

Request: Reported protein stability index at or above 4? "Y3E"
Result: 1

Request: Reported protein stability index at or above 4? "K16S"
Result: 1

Request: Reported protein stability index at or above 4? "K24A"
Result: 0
